Collected growth inhibition values appear next to each entry.
Test: NCI Yeast Anticancer Drug Screen. Data for the sgs1 strain (AID 173);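 note: 0% = growth of vehicle-only control cultures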
Conditions: S. cerevisiae sgs1 mutant, at 3.7 µM, stronger effect = higher value
This is part of a sample that, as a whole, favours compounds with a hit. Of some 79,000 tested, about 15% had one in any assay.

# compound, unit-info, growth inhibition
rows = [
    ("CCCCCCCCN1C(=O)c2ccccc2C1=O", "%", -1),
    ("CCOP1(=O)C=C(Sc2ccc([N+](=O)[O-])cc2[N+](=O)[O-])C(C)(C)O1 (stereo unspecified)", "%", 6),
    ("Cc1cc(Cl)nc2nc(Cl)c(N)cc12", "%", -6),
    ("CC(=O)N1C(=O)/C(=C\\C(=O)c2ccc(Cl)cc2)c2ccccc21", "%", 17),
    ("CCC(c1ccc(O)cc1)C(CC)c1ccc(OCCN)cc1 (stereo unspecified)", "%", -46),
    ("O=C1CC(=O)N(C2CCCCC2)C(=O)N1c1ccccc1S(=O)(=O)Oc1ccccc1", "%", -5),
    ("NNC(=S)Nc1cccc2ccccc12", "%", -33),
    ("CC(=O)O[C@H]1C(=O)[C@@]2(C)[C@H]([C@H](OC(=O)c3ccccc3)[C@]3(O)C[C@H](OC(=O)[C@H](O)[C@@H](NC(=O)c4ccccc4)c4ccccc4)C(C)=C1C3(C)C)[C@]1(OC(C)=O)CO[C@@H]1C[C@@H]2O", "%", -3),
    ("O=C1c2cccc3cc([N+](=O)[O-])cc(c23)C(=O)N1CCN1CCCC1", "%", 0),
    ("Oc1ccccc1N=Cc1ccc(Cl)cc1", "%", 13),
    ("NP1(Oc2ccc(F)cc2)=NP(N)(Oc2ccc(F)cc2)=NP(Oc2ccc(F)cc2)(Oc2ccc(F)cc2)=N1 (stereo unspecified)", "%", 0),
    ("NCc1c(O)ccc2ccccc12", "%", -5),
    ("COC(=O)CSc1nnc(CSc2ccc(Cl)cc2)n1-c1ccccc1", "%", -3),
    ("COc1ccc(N)c2c1C(=O)c1ccccc1C2=O", "%", -6),
    ("COc1ccc(N2C(=O)CC(Cl)C2=O)cc1 (stereo unspecified)", "%", 0),
    ("CCOC(=O)C1=C(C)NC(C)=C(C(=O)OCC)C1c1ccccc1Cl", "%", 28),
    ("CC(=O)C1=C(O)C2(C)c3c(O)c(C)c(O)c(C(C)=O)c3OC2(Sc2ccccc2)CC1=O (stereo unspecified)", "%", 35),
    ("COc1ccc(S(=O)(=O)N/N=C\\c2cc([N+](=O)[O-])cc(I)c2O)c(OC)c1OC", "%", -8),
    ("CCOC(=O)C1=C(C)NC(C)=C(C(=O)OCC)C1c1ccc(C)cc1", "%", 21),
    ("Clc1cc(-c2ccccc2)nc2ccccc12", "%", -12),
    ("O=C1c2ccccc2C(=O)c2cc(S(=O)(=O)Nc3ccccc3)ccc21", "%", 5),
]

====

Measured growth inhibition, listed per entry.
Test: NCI Yeast Anticancer Drug Screen. Data for the rad18 strain (AID 177)
Settings: S. cerevisiae rad18 mutant growth inhibition; at 33.0 µM; stronger effect = higher value
Compounds without any hit were thinned out: in the full panel of roughly 79,000, 15% have a hit. The source made the active and inactive calls. Cut-off read from the data, not from the text of the source: active = growth inhibition above about 70%; inactive = the rest.

# compound, growth inhibition
rows = [
    ("O=C1NC(c2c(Cl)cccc2Cl)Nc2ccccc21 (configuration not stated)", "74% (active)"),
    ("Clc1cc(Cc2ccc(N=C/C=C/c3ccccc3)c(Cl)c2)ccc1N=C/C=C\\c1ccccc1", "-25% (inactive)"),
    ("O=C1c2ccccc2CCC1(Br)Br", "99% (active)"),
    ("Oc1ccc(Br)cc1C=NC1CCCCC1", "92% (active)"),
    ("Cn1c2nc3ccccc3c-2nc2ccccc21", "97% (active)"),
    ("COc1cc(N)ccc1Nc1c2ccccc2nc2ccccc12", "7% (inactive)"),
    ("Nc1ccc(S(=O)(=O)Nc2ccc(Nc3c4ccccc4nc4ccccc34)cc2)cc1", "6% (inactive)"),
    ("O=Cc1coc2ccccc2c1=O", "20% (inactive)"),
    ("NP1(Oc2ccc(F)cc2)=NP(N)(Oc2ccc(F)cc2)=NP(Oc2ccc(F)cc2)(Oc2ccc(F)cc2)=N1 (configuration not stated)", "83% (active)"),
    ("NNC(=S)Nc1cccc(Cl)c1", "24% (inactive)"),
    ("O=C(O)c1[nH]c(=O)c2ccccc2c1Nc1ccccc1", "0% (inactive)"),
    ("COC(=O)c1oc([N+](=O)[O-])c(Cl)c1Cl", "98% (active)"),
]
